Target: T1, FX activation peptide 12-mer DFNQTQPERGDN (human)
T1 peptide: DFNQTQPERGDN-biotin
Experiment: peptide ELISA
Ends that are not written are not given here.
Recorded Metric: ELISA signal relative to background
In your answer, state the number alone without any accompanying words.

Example cases with answers are listed next.
IN: Assign ELISA signal relative to background to the following record: Nb 701D07 (VHH, monovalent Nanobody; not shown: C-terminal FLAG3 and HIS6 tag) VHH: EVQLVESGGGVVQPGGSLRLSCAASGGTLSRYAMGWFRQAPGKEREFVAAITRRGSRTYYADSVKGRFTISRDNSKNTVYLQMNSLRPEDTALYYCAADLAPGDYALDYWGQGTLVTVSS
OUT: 0.75

IN: Assign ELISA signal relative to background to the following record: Nb 729C08 (VHH, monovalent Nanobody; also called Nb 729008; not shown: C-terminal FLAG3 and HIS6 tag) VHH: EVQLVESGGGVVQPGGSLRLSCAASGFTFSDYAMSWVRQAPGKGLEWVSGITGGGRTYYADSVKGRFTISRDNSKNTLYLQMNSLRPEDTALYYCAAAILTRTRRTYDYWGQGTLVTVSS
OUT: 1.1

IN: Assign ELISA signal relative to background to the following record: Nb 501A02 (VHH, monovalent control Nanobody; also called control Nanobody; not shown: C-terminal FLAG3 and HIS6 tag) VHH: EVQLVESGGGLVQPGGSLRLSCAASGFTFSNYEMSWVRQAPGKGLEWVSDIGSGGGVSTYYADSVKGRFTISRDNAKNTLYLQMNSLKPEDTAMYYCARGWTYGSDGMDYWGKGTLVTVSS
OUT: 0.71

Pending binder:
IN: Assign ELISA signal relative to background to the following record: Nb 730C03 (VHH, monovalent Nanobody; also called Nb 730003; not shown: C-terminal FLAG3 and HIS6 tag) VHH: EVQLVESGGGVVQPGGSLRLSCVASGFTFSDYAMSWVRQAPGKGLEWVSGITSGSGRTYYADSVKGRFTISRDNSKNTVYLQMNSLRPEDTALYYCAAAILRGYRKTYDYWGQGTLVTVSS
OUT: 1.16
